- tgt: T1, GPR39 (G protein coupled receptor 39) (UniProt O43194 1-453, limits assumed)
- T1 sequence (looked up): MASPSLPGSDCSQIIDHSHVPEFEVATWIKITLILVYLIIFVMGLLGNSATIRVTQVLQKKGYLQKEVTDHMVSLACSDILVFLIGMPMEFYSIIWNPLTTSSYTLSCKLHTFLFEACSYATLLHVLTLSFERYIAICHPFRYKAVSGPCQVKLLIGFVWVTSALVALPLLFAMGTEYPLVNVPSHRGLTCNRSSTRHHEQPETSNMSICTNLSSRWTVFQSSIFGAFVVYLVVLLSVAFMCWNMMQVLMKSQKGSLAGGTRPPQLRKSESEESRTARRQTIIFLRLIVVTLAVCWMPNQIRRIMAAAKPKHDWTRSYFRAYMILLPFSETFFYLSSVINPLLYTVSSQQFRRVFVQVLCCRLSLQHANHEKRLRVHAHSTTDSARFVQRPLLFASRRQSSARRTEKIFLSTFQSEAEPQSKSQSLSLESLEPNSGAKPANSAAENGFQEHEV
- protocol-notes: cell-based or functional assay
Square brackets hold non-standard residues; d marks the D form. Ends that are not written are not given here. * marks the point of attachment. dPhe(4-Me) = Cc1ccc(C[C@@H](N)C(=O)O)cc1; Trt = c1ccc(C(c2ccccc2)(c2ccccc2)*)cc1; Benzhydryl = c1ccc(C(c2ccccc2)*)cc1; Octanoyl = CCCCCCCC(=O)*; Bn = c1ccc(C*)cc1
The entries below come with measured ECmax; SRE-luciferase reporter values attached.

Input H(Benzhydryl)K(Octanoyl)[dPhe(4-Me)]Y-NH2 [HKFY-66] , output reported ECmax; SRE-luciferase reporter.
20.2 -fold induction over basal

Input H(Trt)K(Octanoyl)FYHQQARF (not fully specified; printed as His(trt)-Lys(caprylic)-Phe-Tyr-His-Gln-Gln-Ala-Arg-Phe) [HKFY-42] , output reported ECmax; SRE-luciferase reporter.
11.8 -fold induction over basal

Input K(Octanoyl)H(Trt)FY [HKFY-55] , output reported ECmax; SRE-luciferase reporter.
16.8 -fold induction over basal

Input H(Bn)K(Octanoyl)FY [HKFY-3] , output reported ECmax; SRE-luciferase reporter.
9.2 -fold induction over basal

Input H(Trt)K(Octanoyl)FYSQNGARF (also: C-terminal amide in IUPAC name, not in sequence formula, .39 lacks Gln-Asn) [HKFY-39] , output reported ECmax; SRE-luciferase reporter.
12.1 -fold induction over basal

Input H(Trt)K(Octanoyl)[dF]Y-OH (not fully specified; printed as His(trt)-Lys(caprylic)-d-Phe-Tyr) [HKFY-12] , output reported ECmax; SRE-luciferase reporter.
20.7 -fold induction over basal
